# Test system: Human gammaherpesvirus 4
# assay.comment: Antiviral activity against Epstein Barr virus infected in human Daudi cells assessed as inhibition of virus-induced cytopathic effect after 3 days by microscopic analysis
# Format: functional, organism-based
# cond: human gammaherpesvirus 4, Daudi, 72 h
measurement.kind: IC50 (µM)
Response body: numeric value in µM, unit text excluded.

C[C@@H](O)C[C@H]1C[C@@H](n2cnc3c(N)ncnc32)[C@H](O)[C@@H]1O (mixture of isomers): 6.6

Next compound, please.
Query: Name the recorded IC50 of the item C[C@H](O)C[C@H]1C[C@@H](n2cnc3c(N)ncnc32)[C@H](O)[C@@H]1O (mixture of isomers) in your answer.
Reply: 6.4

* * *

# assay.comment: Cytotoxicity against human Daudi cells after 3 days by neutral red uptake assay
# Type: cell-based
measurement.kind: CC50 at 72 h

C[C@H](O)C[C@H]1C[C@@H](n2cnc3c(N)ncnc32)[C@H](O)[C@@H]1O (mixture of isomers): > 300 µM

Next molecule, please.
Query: Name the recorded CC50 at 72 h of the item C[C@@H](O)C[C@H]1C[C@@H](n2cnc3c(N)ncnc32)[C@H](O)[C@@H]1O (mixture of isomers) in your answer.
Reply: > 300 µM

* * *

Documented CC50 at 72 h across a set of compounds
# assay.comment: Cytotoxicity against african green monkey Vero 76 cells after 3 days by neutral red uptake assay
# Type: cell-based
# cond: chlorocebus sabaeus

Nc1ncnc2c1ncn2[C@@H]1C[C@H](CCO)[C@@H](O)[C@H]1O: > 300 µM
C[C@@H](O)C[C@H]1C[C@@H](n2cnc3c(N)ncnc32)[C@H](O)[C@@H]1O (mixture of isomers): > 300 µM

Next compound, please.
Query: Name the recorded CC50 at 72 h of the item C[C@H](O)C[C@H]1C[C@@H](n2cnc3c(N)ncnc32)[C@H](O)[C@@H]1O (mixture of isomers) in your answer.
Reply: > 300 µM

meta.source: ChEMBL document CHEMBL2396569
